experimentalTarget: Beta-secretase 1 (Homo sapiens, UniProt P56817)
Sequence (P56817 whole entry): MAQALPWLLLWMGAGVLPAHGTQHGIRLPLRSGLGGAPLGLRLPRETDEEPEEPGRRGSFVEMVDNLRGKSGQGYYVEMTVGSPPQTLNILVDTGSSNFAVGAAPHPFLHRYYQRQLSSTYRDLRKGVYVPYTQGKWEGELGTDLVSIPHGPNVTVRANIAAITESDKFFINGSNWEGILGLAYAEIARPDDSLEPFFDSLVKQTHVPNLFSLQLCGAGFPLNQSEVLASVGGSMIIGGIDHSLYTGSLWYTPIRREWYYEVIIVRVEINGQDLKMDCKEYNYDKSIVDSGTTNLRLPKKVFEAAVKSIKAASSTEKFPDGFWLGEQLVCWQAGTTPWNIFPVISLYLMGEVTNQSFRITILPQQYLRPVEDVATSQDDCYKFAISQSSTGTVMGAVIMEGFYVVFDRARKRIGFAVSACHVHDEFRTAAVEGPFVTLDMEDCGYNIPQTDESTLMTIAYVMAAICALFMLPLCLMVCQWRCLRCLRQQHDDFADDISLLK
runDescription: Inhibition of BACE1 (unknown origin) at 10 uM using Rh-EVNLDAEFK-Quencher as substrate after 60 mins by FRET assay relative to control
Please note: MET applies when inhibition is 10% or greater, and NOT MET applies otherwise.

# count of solved cases: 5
[[record]]
chemicalstructure = "COc1cccc(-c2nc(SCC(=O)Nc3nc(-c4cc(Cl)c(N)c(Cl)c4)cs3)[nH]c(=O)c2C#N)c1"
experimentaltarget = "Beta-secretase 1 (Homo sapiens, UniProt P56817)"
labelvalue = "MET"

[[record]]
chemicalstructure = "N#Cc1c(-c2cccc(OC(F)(F)F)c2)nc(SCC(=O)Nc2nc(-c3cc(Cl)c(N)c(Cl)c3)cs2)[nH]c1=O"
experimentaltarget = "Beta-secretase 1 (Homo sapiens, UniProt P56817)"
labelvalue = "NOT MET"

[[record]]
chemicalstructure = "CCOc1cccc(-c2nc(SCC(=O)Nc3nc(-c4cc(Cl)c(N)c(Cl)c4)cs3)[nH]c(=O)c2C#N)c1"
experimentaltarget = "Beta-secretase 1 (Homo sapiens, UniProt P56817)"
labelvalue = "MET"

[[record]]
chemicalstructure = "COc1cccc(-c2nc(SCC(=O)Nc3nc(-c4cc(Cl)c(NC(C)=O)c(Cl)c4)cs3)[nH]c(=O)c2C#N)c1"
experimentaltarget = "Beta-secretase 1 (Homo sapiens, UniProt P56817)"
labelvalue = "NOT MET"

[[record]]
chemicalstructure = "N#Cc1c(-c2cccc(C(F)(F)F)c2)nc(SCC(=O)Nc2nc(-c3cc(Cl)c(N)c(Cl)c3)cs2)[nH]c1=O"
experimentaltarget = "Beta-secretase 1 (Homo sapiens, UniProt P56817)"
labelvalue = "MET"


Qu. Is inhibition at least 10%? Consider CCOc1cccc(-c2nc(SCC(=O)Nc3nc(-c4cc(Cl)c(NC(C)=O)c(Cl)c4)cs3)[nH]c(=O)c2C#N)c1
Ans. NOT MET

Qu. Evaluate COc1cccc(-c2nc(SCC(=O)Nc3nc(-c4cccc(Br)c4)cs3)[nH]c(=O)c2C#N)c1 : inhibition at minimum 10%?
Ans. MET

Qu. hey, is inhibition for this one >= 10%? COc1cccc(-c2nc(SCC(=O)Nc3nc(-c4cc(Cl)c(N)c(Cl)c4)c[nH]3)[nH]c(=O)c2C#N)c1
Ans. MET
